// provenance: ChEMBL document CHEMBL1123313

For each of the compounds below, state its IC50.
target: Thymidylate synthase (Mus musculus, UniProt P07607); experiment: Inhibitory activity against thymidylate synthase in the intact L1210 cells; assay type: cell-based
Sequence (P07607 whole entry): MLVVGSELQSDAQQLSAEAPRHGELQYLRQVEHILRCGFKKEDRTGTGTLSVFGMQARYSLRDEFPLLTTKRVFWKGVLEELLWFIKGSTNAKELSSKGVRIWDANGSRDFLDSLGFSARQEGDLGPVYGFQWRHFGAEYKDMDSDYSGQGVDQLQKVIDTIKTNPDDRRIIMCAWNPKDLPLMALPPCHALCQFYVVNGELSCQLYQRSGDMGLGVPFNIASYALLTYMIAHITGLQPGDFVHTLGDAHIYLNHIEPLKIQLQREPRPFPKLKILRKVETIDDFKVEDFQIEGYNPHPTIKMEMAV

Query: Would you kindly share the measured IC50 for CN(Cc1cnc2nc(N)nc(O)c2n1)c1ccc(C(=O)NC(CCC(=O)O)C(=O)O)cc1 (stereo not drawn) ?
Response: > 1000 µM

Query: Bench note: what IC50 did Nc1nc2ncc(CNc3ccc(C(=O)N[C@@H](CCC(=O)O)C(=O)O)cc3)nc2c(=O)[nH]1 show?
Response: > 1000 µM

Query: Given the entry C#CCN(Cc1cnc2nc(N)nc(O)c2n1)c1ccc(C(=O)NC(CCC(=O)O)C(=O)O)cc1 (stereo not drawn) , report its measured IC50.
Response: > 3000 µM
